protocol: chemical genetic growth profiling, strain panel (AID 1159580);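 note: tested at 20 µM; growth read once vehicle control cultures reached saturation at 30 °C; 1 = growth at the plate median or of vehicle wells; lower values mean less growth of the strain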
applied conditions: S. cerevisiae deletion strains, growth OD, locus YDR388W, active compounds read low
Screen size: about 5,500 compounds; about 2,000 (36%) were called active. Inconclusive results (about 18%) are left out. Some of the results follow.
readout name: normalized growth

[[record]]
molecule = "CCCc1nn(C)c2c(=O)[nH]c(-c3cc(S(=O)(=O)N4CCN(C)CC4)ccc3OCC)nc12"
number = 0.962

[[record]]
molecule = "COc1ccc(-c2cc(=O)c3c(O)c(OC)c(OC)cc3o2)cc1O"
number = 0.99

[[record]]
molecule = "CC1(C)[C@@H]2CC[C@@]1(C)C(=O)C2"
number = 1.01

[[record]]
molecule = "CO[C@@H]1[C@@H](OC(N)=O)[C@@H](O)[C@H](Oc2ccc3c(O)c(NC(=O)c4ccc(O)c(CC=C(C)C)c4)c(=O)oc3c2C)OC1(C)C"
number = 0.991

[[record]]
molecule = "COc1ccc(-c2cc(=O)c3c(O)cc(O)cc3o2)cc1"
number = 0.979

[[record]]
molecule = "O=c1c(O)cccc2c(C3Oc4cc(O)cc(O)c4CC3O)cc(O)c(O)c12 (stereo unspecified)"
number = 0.691

